- test-description: LNCaP granularity increase inducers, single-point recheck – cell-based, side scatter shift, flow cytometry, confirmation (AID 1069);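 also: LNCaP human prostate cancer cells in low-serum medium with charcoal-stripped FBS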
- measurement-setup: LNCaP differentiation, 4 d, at 100 µM, active compounds read high
Param threshold (20%) applies to side scatter shift; output satisfied when value >= threshold, not satisfied when value < threshold.

Here are 2 compounds together with their reported answers.
# compound, classification
measured = [
    ("CCc1nn(C(C)C(=O)N2CCc3ccccc3C2)c(=O)c2cc3occc3n12 (stereo unspecified)", "not satisfied"),
    ("CC(C)(C)C1CCc2onc(C(=O)Nc3cnn(Cc4ccc(F)cc4)c3)c2C1 (stereo unspecified)", "satisfied"),
]

Next item in the queue.
Inquiry: side scatter shift >= 20% for `CCOC(=O)N1CCN(C(=O)CN(c2cccc(C(F)(F)F)c2)S(=O)(=O)c2ccccc2)CC1` ?
Reply text: not satisfied
